Experiment: qHTS assay to test for compound auto fluorescence at 460 nm (blue) in HEK293 cell free culture (AID 720681); note: % is set by controls: 0 for no effect and ±100 for the full control effect
Details: cell-free medium, autofluorescence 405/460 nm (blue); series mostly up to 91.3 µM
Active and inactive are the calls of the source. Calls come from the whole dose curve; as a rule, active = well fitted curve in the direction sought with a large enough effect in the repeat runs; inconclusive = weak or mixed curves; inactive = flat fitted curve, though single readings scatter.
Measured Metric: fluorescence, % of fluorescent control

Below: 6 compounds and their reported fluorescence, % of fluorescent control.
>>> observed_value("O=C(O)c1cn(C2CC2)c2cc(N3CCNCC3)c(F)cc2c1=O")
"-0.0136% [at 18.6 µM] (inactive)"
>>> observed_value("CC(C)C1CCC(O)CC1 (stereo not drawn)")
"inactive"
>>> observed_value("CN1CC(=O)N/C1=N/C(=O)Nc1cccc(Cl)c1")
"inactive"
>>> observed_value("Cc1ccc(C(=O)c2ccc(CC(=O)O)n2C)cc1")
"0.0612% [at 18.6 µM] (inactive)"
>>> observed_value("CCC(=O)OCc1ccccc1")
"inactive"
>>> observed_value("COC(=O)C1=C(C)NC(C)=C(C(=O)OC(C)C)C1c1cccc2nonc12 (stereo not drawn)")
"0.0173% [at 18.6 µM] (inactive)"

Ask | Return reported fluorescence, % of fluorescent control; argument: CC(N)C12CC3CC(CC(C3)C1)C2 (stereo not drawn)
Reply | inactive

Ask | Return reported fluorescence, % of fluorescent control; argument: CC(=O)C1CCCCC1=O (stereo not drawn)
Reply | inactive
